- target desc: UGANCYP6P9a (Anopheles funestus, UniProt B5AII6)
- assay details: Pyrethroid depletion (metabolism) assay with recombinant enzyme
- Assay type: biochemical
- measurement context: 20μM insecticide, 1 hour, vs -NADPH
metric name: Percentage depletion
Report as: number unit

For orientation, consider the following solved cases.
| compound | target desc | Percentage depletion |
| --- | --- | --- |
| CCOc1ccc(C(C)(C)COCc2cccc(Oc3ccccc3)c2)cc1 | UGANCYP6P9a (Anopheles funestus, UniProt B5AII6) | 42.55±1.03 % |
| CC1(C)[C@H](C(=O)O[C@H](C#N)c2cccc(Oc3ccccc3)c2)[C@@H]1C=C(Br)Br | UGANCYP6P9a (Anopheles funestus, UniProt B5AII6) | 57.9±2.74 % |
| Cc1c(COC(=O)[C@@H]2[C@H](/C=C(\Cl)C(F)(F)F)C2(C)C)cccc1-c1ccccc1 (racemic) | UGANCYP6P9a (Anopheles funestus, UniProt B5AII6) | 50.31±3.8 % |

Hi there! I need Percentage depletion for each item below, if you can.
1. CC1(C)C(C=C(Cl)Cl)C1C(=O)OCc1cccc(Oc2ccccc2)c1 (centres unmarked)
2. CC1(C)[C@H](C(=O)O[C@H](C#N)c2cccc(Oc3ccccc3)c2)[C@@H]1/C=C(\Cl)C(F)(F)F (racemic)

OUT:
["60.71±0.92 %", "47.74±1.5%"]

----------
- target desc: FANGCYP6P9a (Anopheles funestus)
- assay details: Pyrethroid depletion (metabolism) assay with recombinant enzyme
- Type: biochemical
- measurement context: 20μM insecticide, 1 hour, vs -NADPH
metric name: Percentage depletion (%)
One number for each entry, in %.

For orientation, consider the following solved cases.
| molecule | Percentage depletion, % |
| --- | --- |
| CC1(C)[C@H](C(=O)O[C@H](C#N)c2cccc(Oc3ccccc3)c2)[C@@H]1/C=C(\Cl)C(F)(F)F (racemic) | 15.46 |
| Cc1c(COC(=O)[C@@H]2[C@H](/C=C(\Cl)C(F)(F)F)C2(C)C)cccc1-c1ccccc1 (racemic) | 16.6 |
| CCOc1ccc(C(C)(C)COCc2cccc(Oc3ccccc3)c2)cc1 | 7.28 |

Hi there! I need Percentage depletion for each item below, if you can.
1. CC1(C)C(C=C(Cl)Cl)C1C(=O)OCc1cccc(Oc2ccccc2)c1 (centres unmarked)
2. CC1(C)[C@H](C(=O)O[C@H](C#N)c2cccc(Oc3ccccc3)c2)[C@@H]1C=C(Br)Br

OUT:
29.0
18.11

----------
- target desc: FANGCYP6P9b (Anopheles funestus)
- assay details: Pyrethroid depletion (metabolism) assay with recombinant enzyme
- Format: biochemical
- measurement context: 20μM insecticide, 1 hour, vs -NADPH
Answer each item with its documented Percentage depletion.
Numbers only, in %.

| molecule | metric name | readout units | measurement |
| --- | --- | --- | --- |
| CC1(C)[C@H](C(=O)O[C@H](C#N)c2cccc(Oc3ccccc3)c2)[C@@H]1/C=C(\Cl)C(F)(F)F (racemic) | Percentage depletion | % | 15.49 |
| CC1(C)C(C=C(Cl)Cl)C1C(=O)OCc1cccc(Oc2ccccc2)c1 (centres unmarked) | Percentage depletion | % | 13.7 |

Hi there! I need Percentage depletion for each item below, if you can.
1. CC1(C)[C@H](C(=O)O[C@H](C#N)c2cccc(Oc3ccccc3)c2)[C@@H]1C=C(Br)Br
2. CCOc1ccc(C(C)(C)COCc2cccc(Oc3ccccc3)c2)cc1
3. Cc1c(COC(=O)[C@@H]2[C@H](/C=C(\Cl)C(F)(F)F)C2(C)C)cccc1-c1ccccc1 (racemic)

OUT:
1. 6.2
2. 16.88
3. 22.38
